Target: T1, Human Siglec-9 (human, UniProt Q9Y336 18-463)
T1 construct: On transfected CHO cells; also on YTS and KHYG-1 transfectants, primary NK cells and moDC; also called huSiglec-9; CD329
T1 sequence (Q9Y336 18-463): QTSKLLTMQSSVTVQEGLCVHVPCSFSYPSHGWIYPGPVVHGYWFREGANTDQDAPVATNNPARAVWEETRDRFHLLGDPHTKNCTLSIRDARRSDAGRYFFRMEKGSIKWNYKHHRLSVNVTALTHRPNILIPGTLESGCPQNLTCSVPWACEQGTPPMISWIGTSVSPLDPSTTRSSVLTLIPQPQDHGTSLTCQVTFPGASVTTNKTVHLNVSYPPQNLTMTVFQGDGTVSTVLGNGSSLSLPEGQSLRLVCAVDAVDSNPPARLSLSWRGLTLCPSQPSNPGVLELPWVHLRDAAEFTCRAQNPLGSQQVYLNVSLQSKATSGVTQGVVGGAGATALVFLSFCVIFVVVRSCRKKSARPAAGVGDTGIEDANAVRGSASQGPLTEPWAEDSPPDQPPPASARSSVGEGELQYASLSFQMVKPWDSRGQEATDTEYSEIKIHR
Assay: flow cytometry on fresh purified human NK cells, mean of 4 donors
Method: Binding of antibodies on fresh purified human NK cells was tested by titration experiment by flow cytometry. Cells were incubated 1h in Staining Buffer (SB) with primary antibodies at 10 ug/ml and a series of dilution of 1:10. […] Stainings were acquired on a BD FACS Canto II and analyzed using the FlowJo software. EC₅₀ values are shown in the table below in μg/ml (calculated using a 4-parameter logistic fit).

# BINDER, EC50
measured = [
    ("mAbB (antibody, human IgG1, V domains shown) VH: QVQLQQPGAELVKPGASVKLSCKASVYTFTSYWMHWVKQRPGQGLEWIGEINPSNGHTNYNEKFKTKAKLTVDKSSSTAYMQLSSLTSEDSAVYFCANGVETYDFDDAMDYWGQGTSVTVSS VL: DIQMTQTTSSLSASLGDRVTISCRASQDINNYLNWYQQKPDGTVKLLIYFTSRLHSGVPSRFSGSGSGTDYSLTISNLEQEDIATYFCQQGDTFPFTFGGGTKLEIK", "0.1 µg/mL"),
    ("mAbE (antibody, human IgG1, V domains shown) VH: DVQLVESGGGLVQPGGSRKLSCAASGFTFSTFGMHWVRQAPEKGLEWVAYISSGSNAIYYADTVKGRFTISRDNPKNTLFLQMTSLRSEDTAMYYCASPGYGAWFAYWGQGTLVTVSA VL: ENVLTQSPAIMSASPGEKVTMTCRASSSVSSAYLHWYQQKSGASPKLWIYSTSNLASGVPARFSGSGSGTSYSLTISSVEAEDAATYYCQQYSAYPYTFGGGTKLEIK", "0.01 µg/mL"),
    ("mAbF (antibody, human IgG1, V domains shown) VH: QVQLQQSGPEVVRPGVSVKISCKGSGYTFTDYSMHWVKQSHAKSLEWIGVISTYNGNTNYNQKFKGKATMTVDKSSSTAYMELARLTSEDSAIYYCARRGYYGSSSWFGYWGQGTLVTVSA VL: DIVMTQSQKFMSTSVGDRVSVTCKASQNVGTDVAWYQQKPGQSPEALIYSASYRYSGVPDRFTGSGSGADFTLTISNVQSEDLAEYFCQQYNSFPYTFGGGTKLEIK", "0.3 µg/mL"),
]

Attribution: patent US20200369765A1
